Measured values drawn from ChEMBL document CHEMBL2396586 for this set.

Test: Oral bioavailability in Sprague-Dawley rat at 2.5 mg/kg
Type: ADME, organism-based
Conditions: in vivo
VALUE_KIND: bioavailability (%)
Write down the numeric answer in % and omit the unit.

Q: Please list bioavailability recorded for the compound `CCS(=O)(=O)Nc1cccc(-c2cc(=O)n(-c3ccc(Cl)c(Cl)c3)nc2C)c1`
A: 102

----------
Experiment: Volume of distribution at steady state in Sprague-Dawley rat at 2.5 mg/kg, iv
Format: ADME, organism-based
Set-up: dose 2.5 mg/kg, route intravenous
Conditions: in vivo, read-out: Vdss
VALUE_KIND: Vd (L/kg)
Provide only the numeric value, understood in L/kg.

Q: Fill in Vd for record `CCS(=O)(=O)Nc1cccc(-c2cc(=O)n(-c3ccc(Cl)c(Cl)c3)nc2C)c1`
A: 2.25
